tested on: P12-Ichikawa; test: cell viability relative to DMSO control; higher = less cytotoxic; conditions: RPMI 5 mM glucose + 10% dialyzed FBS; 48 h; 0.0632 µM
Readout: cell viability (%)
Express it in %; write the number only.

cell viability measured on N/C(=N\C(=O)c1nc(Cl)c(N)nc1N)NCc1ccccc1 = 94.4

Entry CCCn1c(=O)c2[nH]c(-c3cnn(Cc4cccc(C(F)(F)F)c4)c3)nc2n(CC)c1=O ; cell viability = 107

* * *

compounds and their reported cell viability
test system: P12-Ichikawa; test: cell viability relative to DMSO control; higher = less cytotoxic; conditions: RPMI 5 mM glucose + 10% dialyzed FBS; 48 h; 46.1 µM

COc1ccc(-c2nc3cc(C4=NNC(=O)CC4C)ccc3[nH]2)cc1 (stereo not drawn)	84.1%

Kindly note the recorded cell viability for c1cc(OCCN2CCCCC2)cc(-c2n[nH]c3ccc(-c4nc[nH]n4)cc23)c1 , which is 116%

Lab note: measured cell viability of COc1cc2c(NC3CCN(C(C)C)CC3)nc(C3CCCCC3)nc2cc1OCCCN1CCCC1 was 4.78%

* * *

tested on: NOMO1; assay: cell viability relative to DMSO control; higher = less cytotoxic; details: RPMI 5 mM glucose + 10% dialyzed FBS; 48 h; 0.000781 µM
Readout: cell viability (%)
Give your result in % as a bare value.

CCCCOc1ccc(C(=O)Nc2ccc(F)cc2F)cc1	79.5
c1ccc2c(Oc3nc(Nc4ccc(N5CCOCC5)cc4)c4ncn(C5CCCCC5)c4n3)cccc2c1	102
O=C(NC1CC1)c1cccc(-c2ccc3c(NC(=O)C4CC4)n[nH]c3c2)c1	118

Measured cell viability, CN(C)[C@H]\1[C@@H]2[C@@H](O)[C@@H]\3C(=C)C4=C(C(=CC=C4)O)C(=O)C3=C(\O)[C@@]2(O)C(=O)\C(=C1O)C(N)=O : 127

Reported cell viability ( Cc1cc(SCc2sc(-c3ccc(C(F)(F)F)c(F)c3)nc2C)ccc1OCC(=O)O ) = 99.5

Lookup result for CC1=CC2=C(O1)C(=C3OC(=O)\C=C(C)/C3=C2)C ; measured cell viability: 91.2

Entry CNC(=O)c1c(F)cccc1Nc1nc(Nc2cc3c(cc2OC)CCN3C(=O)CN(C)C)nc2[nH]ccc12 ; cell viability = 107

Briefly, cell viability measured for CC1(C)CC(=O)c2c(C(F)(F)F)nn(-c3ccc(C(N)=O)c(NC4CCC(OC(=O)CN)CC4)c3)c2C1 (stereo not drawn) : 94.4

// cell viability lookup, compound = COc1ccc([C@@H]2CNC(=O)C2)cc1OC1CCCC1 , result: 92.6

Consider Nc1ccc([S+](=O)([O-])Nc2ccccn2)cc1 . Its measured cell viability is 120

Reported cell viability for Clc1ccc(COC(Cn2ccnc2)c2ccc(Cl)cc2Cl)cc1 (stereo not drawn) was 114

Field cell viability (entry c1cc(OCCN2CCCCC2)cc(-c2n[nH]c3ccc(-c4nc[nH]n4)cc23)c1 ) reads 99.5

// cell viability lookup, compound = CC(Oc1ccc(O)cc1)(P(=O)(O)O)P(=O)(O)O , result: 94.8

Reported cell viability ( CC1(C)O[C@H]2CC(=O)OC[C@]23[C@H]2CC[C@@]4(C)[C@H](c5ccoc5)OC(=O)[C@H]5O[C@]54[C@]2(C)C(=O)C[C@@H]13 ) = 87.2

Input COc1cc(N2CCC(N3CCN(C)CC3)CC2)ccc1Nc1ncnc(Nc2ccccc2[S+](=O)([O-])C(C)C)n1 . Output cell viability: 87.6

Per the records, this compound ( COC1=CC=C(C=C1)C/2=C/OC3=CC(=CC=C3C2=O)O ) has cell viability equal to 122

Please fill in: cell viability reported for C=C1C[C@@]2(O)O[C@@]3(C[C@H]2C(C)C)[C@@H](C)CC[C@@H]13 = 114

Lab note: measured cell viability of Cc1ccccc1C(C(=O)NC1CCCCC1)N(C(=O)CNc1ccc(C#N)cc1)c1cccc(F)c1 (stereo not drawn) was 71.9

* * *

tested on: P12-Ichikawa; assay: AUC of viability dose-response curve (% viability x log10 dose units); higher = less sensitive; settings: HPLM + 10% dialyzed FBS; 48 h
Reported values of AUC of viability dose-response curve for individual entries
// print number alone

Illustrative cases are given below, each with its answer.
Cc1nc2c([nH]1)-c1ccccc1N(C(=O)c1ccc(NC(=O)c3ccccc3-c3ccccc3)cc1)CC2	466
CN(C)CCC=C1C2=C(C=CC=C2)\C=C/C3=C1C=CC=C3	449
COc1cc(N2CCC(N3CCN(C)CC3)CC2)ccc1Nc1ncnc(Nc2ccccc2[S+](=O)([O-])C(C)C)n1	447
CC(C)(C)C1=NC2=C([NH]1)C3=CC=C(F)C=C3C4=C2\C=C/NC4=O	391
O=C(c1ccc(F)cc1)C1CCN(CCn2c(=O)[nH]c3ccccc3c2=O)CC1	455

AUC of viability dose-response curve for Clc1ccc(COC(Cn2ccnc2)c2ccc(Cl)cc2Cl)cc1 (centres undefined) is 477

Short answer for C[C@@]12OC(=O)[C@@]1(NC(=O)[C@@H]2CCCl)[C@@H](O)[C@H]\3CCC\C=C3 : AUC of viability dose-response curve was 256

The value of AUC of viability dose-response curve measured for the compound CCCCc1oc2ccc(NS(C)(=O)=O)cc2c1C(=O)c1ccc(OCCCN(CCCC)CCCC)cc1 turned out to be 414

GET /value?item= Cc1ccccc1C(C(=O)NC1CCCCC1)N(C(=O)CNc1ccc(C#N)cc1)c1cccc(F)c1 (centres undefined) &field=AUC of viability dose-response curve returns 453

Recorded AUC of viability dose-response curve (compound CC1(C)CC(=O)c2c(C(F)(F)F)nn(-c3ccc(C(N)=O)c(NC4CCC(OC(=O)CN)CC4)c3)c2C1 (centres undefined) ): 346

Consider CCCn1c(=O)c2[nH]c(C34CC5CC3C[C@@H](C5)C4)nc2n(CCC)c1=O . Its measured AUC of viability dose-response curve is 462

Just so you know, measured AUC of viability dose-response curve for C/C=C(/C(=C/C)c1ccc(O)cc1)c1ccc(O)cc1 came out at 469

# AUC of viability dose-response curve (compound: CCN1CCN(Cc2ccc(-c3cc4c(N[C@H](C)c5ccccc5)ncnc4[nH]3)cc2)CC1 ) is 448

* * *

test system: SEM cells; assay: cell viability relative to DMSO control; higher = less cytotoxic; settings: HPLM + 10% dialyzed FBS; 48 h; 0.00234 µM
Readout: cell viability (%)
Please give a number only; it is taken to be in %.

Data point: NC\1=N\C(=O)N(\C=N1)[C@H]2C[C@H](O)[C@@H](CO)O2 ; cell viability = 100

CN[C@@H](C)C(=O)N[C@H]1CCCC[C@H]2CC[C@@H](C(=O)N[C@@H](c3ccccc3)c3cn(CCCCc4ccc(CCCCn5cc([C@@H](NC(=O)[C@@H]6CC[C@@H]7CCCC[C@H](NC(=O)[C@H](C)NC)C(=O)N76)c6ccccc6)nn5)cc4)nn3)N2C1=O yielded cell viability of 96.1

Kindly note the recorded cell viability for CC(C)[C@H](CO)Nc1nc(Nc2ccc(C(=O)O)c(Cl)c2)c2ncn(C(C)C)c2n1 , which is 104

The measured cell viability associated with Cn1cc(-c2ccncc2)c(-c2ccc(OCc3ccc4ccccc4n3)cc2)n1 reads 127

* * *

Listing of recorded cell viability by entry.
test system: P12-Ichikawa; test: cell viability relative to DMSO control; higher = less cytotoxic; conditions: RPMI 5 mM glucose + 10% dialyzed FBS; 48 h; 0.000781 µM
Hi! Could you send only the number? It should be in %, unit omitted.

Quick note, cell viability for CN(C)CCC=C1C2=C(C=CC=C2)\C=C/C3=C1C=CC=C3 landed at 115

// field: cell viability; key: CCCn1c(=O)c2[nH]c(C34CC5CC3C[C@@H](C5)C4)nc2n(CCC)c1=O ; value = 94.2

The compound listed as COC(=O)N[C@H](C(=O)N[C@@H](Cc1ccccc1)[C@@H](O)CN(Cc1ccc(-c2ccccn2)cc1)NC(=O)[C@@H](NC(=O)OC)C(C)(C)C)C(C)(C)C has a reported cell viability of 98.9

Entry under test: CCCCOc1ccc(C(=O)Nc2ccc(F)cc2F)cc1 . Its cell viability was 84

Form: compound = CC(C)[C@@H](N(CCCN)C(=O)C1=CC=C(C)C=C1)C/2=C(\CC3=CC=CC=C3)C(=O)C4=C(O2)C=C(Cl)C=C4 ; cell viability = 70.7

cell viability for CO[C@@H]1[C@H](N(C)C(=O)c2ccccc2)C[C@H]2O[C@]1(C)n1c3ccccc3c3c4c(c5c6ccccc6n2c5c31)C(=O)NC4 is 111

Summary for this compound, CN1C(=O)COc2c(C(=O)NC3CN4CCC3CC4)cc(Cl)cc21 (stereo not drawn) : cell viability is 95.8

Kindly note the recorded cell viability for COC1=CC=C(C=C1)C/2=C/OC3=CC(=CC=C3C2=O)O , which is 116
